Values compiled from ChEMBL document CHEMBL1201862.

- System: A549
- Method: NCI tumour cell line growth inhibition, 48 h
The source made the active and inactive calls. Rule as the data show it: active = GI50 up to about 1.1 µM and inactive = higher.
Possible outcomes: class 1 for active, class 0 for inactive

• N#CCCN(CCC#N)c1ccc(C(=O)NN)cc1 = class 0
• CC1(C)OC2CC(=O)OCC23C1CC(=O)C1(C)C3CCC2(C)C(c3ccoc3)OC(=O)C3OC321 (stereo unspecified) = class 0
• COC1CCC(O)C(CO)O1 (stereo unspecified) = class 0
• CC(=O)O[C@@H]1CO[C@H]2O[C@H]3[C@@H](C(C=O)=C[C@H](O)[C@@H]4C5=C(C(C)C)CC[C@]5(C)CC[C@@]34C)[C@@]2(O)C1=O [STRIATIN E] = class 1
• Cc1ccc(S(=O)(=O)n2c3c(c4ccccc42)CCN2C(=O)C(S(=O)(=O)c4ccccc4)=CCC32)cc1 (stereo unspecified) = class 0
• CC1(c2ccccc2Cl)C(C#N)C(=O)NC(=O)C1C#N (stereo unspecified) = class 0
• CC1OC(OC2C(O)COC(OC3C(C)OC(OC4C(OC(=O)[C@]56CCC(C)(C)C[C@@H]5C5=CCC7[C@@]8(C)C[C@H](O)[C@H](OC9OC(CO)C(O)C(OC%10OC(CO)C(O)C(O)C%10O)C9O)[C@@](C)(CO)[C@@H]8CC[C@@]7(C)[C@]5(C)CC6)OCC(O)C4O)C(O)C3OC3OCC(O)C(O)C3O)C2O)C(O)C(O)C1O (stereo partly specified) = class 0
• CN1C/C(=C\c2cccs2)C(O)/C(=C/c2cccs2)C1 (stereo unspecified) = class 0
• CC(=O)/C(=C\c1cccc([N+](=O)[O-])c1)C(=O)Nc1ccccc1C = class 0
• CCCCC(=O)c1c(O)nc2sccn2c1=O = class 0
• C=C1C(=O)O[C@H]2C[C@@H]1C(=O)CC(C)CCCC(C)=CCC[C@@]2(C)O (stereo partly specified) = class 0
• COc1cccc(/C=C(\NC(C)=O)c2nc3cc(Cl)ccc3[nH]2)c1 = class 0
• [O-][n+]1c2c([n+]([O-])c3ccccc31)-c1cccc3cccc-2c13 = class 0
• CN(C)C(=O)OCOC(=O)N(C)C = class 0
• O=c1[nH]c(=O)n(C2COC(CO)C2O)cc1F (stereo unspecified) = class 0
• COc1ccc(/C=C2\CN(C)CC3C2=NN(c2ccccc2)C3c2ccc(OC)cc2)cc1 (stereo unspecified) = class 0
• O=C(/C=C/c1ccc(Cl)c(Cl)c1)c1ccccc1Cl = class 0
• C[C@@]1(CCCCCCCCCCc2ccccc2)C[C@@]2(C)OC(=O)C[C@H]2OO1 = class 0
• CCOC(=O)N1C/C(=C\c2ccccc2)C(=O)/C(=C/c2ccccc2)C1 = class 0
• Cc1cc(C)c(C)c(-n2[nH]c(=O)n(C)c2=O)c1C = class 0
• Cc1cccc(C(C)(C)C)c1NC(=O)C(=O)C(C(=O)/C=C\c1ccccc1)C1OC(=O)c2ccccc21 (stereo unspecified) = class 0
• Cc1nn2c(C(=O)N/N=C/c3ccc([N+](=O)[O-])cc3)c(C)nc2s1 = class 0
• Cc1nc2ccccc2n1Cc1nnc(-c2ccccc2)o1 = class 0
• C=CCOC(=O)N1c2ccc(O)cc2[C@@]23O[C@@]24[C@@H]1C#C/C=C\C#C[C@]3(O)C(OC)(OC)C[C@@H]4C = class 0
• C#CCN(Cc1ccc2nc(-c3ccccc3)c(N)nc2c1)c1cc(OC)c(OC)c(OC)c1 = class 0
• CCCC[C@@H](C)/C=C1\CN2CCC[C@H]2[C@@](C)(O)[C@@H]1O = class 0
• CC(NCCN(C)C)C1CCC2C3CCc4cc(O)ccc4C3CCC12C (stereo unspecified) = class 0
• Cc1cc(=O)n2nc(CSc3nnc(S)s3)sc2n1 = class 0
• O=c1oc2ccccc2c2c1Sc1ccccc1N2 = class 0
• Cc1cn(C2CC(N=[N+]=[N-])C(C(=O)O)O2)c(=O)[nH]c1=O (stereo unspecified) = class 0
• Cc1c(Cl)ccc2c1NC(=O)C2(O)CC(=O)c1cccc2ccccc12 (stereo unspecified) = class 0
• Nc1ncnc2c1ncn2C1C=CC(CP(=O)(O)O)C1 (stereo unspecified) = class 0
• COc1c(Br)cc2c(c1OC)C(Br)CCC(Br)(Br)C2=O (stereo unspecified) = class 0
• COC(=O)n1c(=O)n(-c2ccccc2)c(=O)n1C(=O)Nc1ccccc1 = class 0
• c1cc(N(CCn2cccn2)CCn2cccn2)cc(N(CCn2cccn2)CCn2cccn2)c1 = class 0
• Cc1cc(C)nc(NS(=O)(=O)c2ccc(Nc3c4ccccc4nc4ccc(C(=O)Nc5ccc(S(N)(=O)=O)cc5)cc34)cc2)n1 = class 0
